Each entry below lists one item and its recorded pre-steady-state target cleavage rate value.
system: MIWI (PIWIL1) piRISC loaded with L1MC piRNA (30 nt); assay: pre-steady-state target cleavage rate (min^-1); MIWI and MILI are mouse PIWI proteins and EfPiwi is from a freshwater sponge; tags in brackets are library labels; higher = faster piRNA-guided slicing of the target; settings: guide: L1MC piRNA 5'p-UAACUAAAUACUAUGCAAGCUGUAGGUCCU; auxiliary factor: none (no GTSF1);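 also: 1 nM active piRISC with 0.1 nM target library at 33 °C single turnover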
Whole data set: some 8,200 sequences, median “pre-steady-state target cleavage rate” near 0.024, cut for the highest 2% near 1.3. The list comes from a sample in which the highest values are over-represented; it also holds close analogues and randomly drawn sequences.

Consider the reported pre-steady-state target cleavage rate for these sequences:
[
  {
    "Primary sequence": "UCCUCCUACAGCUUGCAAAGUAUUUAGUUA",
    "System name": "MIWI (PIWIL1) piRISC loaded with L1MC piRNA (30 nt)",
    "pre-steady-state target cleavage rate": 0.0317
  },
  {
    "Primary sequence": "UCGACCUACAGCUUGCUUAGUAUUUAGUAA",
    "System name": "MIWI (PIWIL1) piRISC loaded with L1MC piRNA (30 nt)",
    "pre-steady-state target cleavage rate": 0.0176
  },
  {
    "Primary sequence": "UCCUGCUACAGCAUGCAUAGUAUUUAGUAA",
    "System name": "MIWI (PIWIL1) piRISC loaded with L1MC piRNA (30 nt)",
    "pre-steady-state target cleavage rate": 0.00614
  },
  {
    "Primary sequence": "UCCUGCUACAGCUUGCAUAGUAUUUAGUUUA",
    "System name": "MIWI (PIWIL1) piRISC loaded with L1MC piRNA (30 nt)",
    "pre-steady-state target cleavage rate": 0.0574
  },
  {
    "Primary sequence": "UCCUGCUACAGCUUGCCUAGUAUUUAGUUA",
    "System name": "MIWI (PIWIL1) piRISC loaded with L1MC piRNA (30 nt)",
    "pre-steady-state target cleavage rate": 0.0207
  },
  {
    "Primary sequence": "UCGACCUACGGCUUGCAUAGUAUUUAGUUA",
    "System name": "MIWI (PIWIL1) piRISC loaded with L1MC piRNA (30 nt)",
    "pre-steady-state target cleavage rate": 0.069
  },
  {
    "Primary sequence": "AGCUCCUACAGCUUGCAUAGUAUUUAGUUA",
    "System name": "MIWI (PIWIL1) piRISC loaded with L1MC piRNA (30 nt)",
    "pre-steady-state target cleavage rate": 0.0847
  },
  {
    "Primary sequence": "UGCUCCUACAGCUUGCAUAGUAUUUAGUAA",
    "System name": "MIWI (PIWIL1) piRISC loaded with L1MC piRNA (30 nt)",
    "pre-steady-state target cleavage rate": 0.0382
  }
]

Give the measured pre-steady-state target cleavage rate of UCCUCCUACAGCUUGCAUAGUUUUUAGAUA .
0.00676

Can you look up the measured pre-steady-state target cleavage rate of UCCACCGUACAGCUUGCAUAGUAUUUAGUUA for me?
0.0628

If you can, please state the reported pre-steady-state target cleavage rate value of UCCUGGAACAGCGUUGCAUAGUAUUUAGUUA .
0.0303

Which pre-steady-state target cleavage rate value is on record for UGGACCUACGGCUUGCAUAGUAUUUAGUUA ?
0.0662

For the sequence UCCUCGUACAGCUUGCAUAGUAUUUAGAAA , what pre-steady-state target cleavage rate is on record?
0.00538

Quick one: pre-steady-state target cleavage rate of UCCUGGAUGUGCAUUGCAUAGUAUUUAGUUA ?
0.0111

Which pre-steady-state target cleavage rate value belongs to UCCUCCUACAGCUUGCAUAGUAUAAUGUUA ?
0.0146

Please look up its pre-steady-state target cleavage rate: ACGACCUACAGCUUGCUUAGUAUUUAGUUA
0.0527

Every entry's value here was drawn from the supplement of paper PMC10338343.
